From: patent US20260049134A1

Each entry below carries its reported mAb binding (MFI).
- System Tested: T1, GARS, endogenous in H929 multiple myeloma cells (human, UniProt P41250 37-739, limits assumed)
- T1 construct: Native protein pulled down from H929 lysates; also called Glycyl-tRNA synthetase; GlyRS
- T1 sequence: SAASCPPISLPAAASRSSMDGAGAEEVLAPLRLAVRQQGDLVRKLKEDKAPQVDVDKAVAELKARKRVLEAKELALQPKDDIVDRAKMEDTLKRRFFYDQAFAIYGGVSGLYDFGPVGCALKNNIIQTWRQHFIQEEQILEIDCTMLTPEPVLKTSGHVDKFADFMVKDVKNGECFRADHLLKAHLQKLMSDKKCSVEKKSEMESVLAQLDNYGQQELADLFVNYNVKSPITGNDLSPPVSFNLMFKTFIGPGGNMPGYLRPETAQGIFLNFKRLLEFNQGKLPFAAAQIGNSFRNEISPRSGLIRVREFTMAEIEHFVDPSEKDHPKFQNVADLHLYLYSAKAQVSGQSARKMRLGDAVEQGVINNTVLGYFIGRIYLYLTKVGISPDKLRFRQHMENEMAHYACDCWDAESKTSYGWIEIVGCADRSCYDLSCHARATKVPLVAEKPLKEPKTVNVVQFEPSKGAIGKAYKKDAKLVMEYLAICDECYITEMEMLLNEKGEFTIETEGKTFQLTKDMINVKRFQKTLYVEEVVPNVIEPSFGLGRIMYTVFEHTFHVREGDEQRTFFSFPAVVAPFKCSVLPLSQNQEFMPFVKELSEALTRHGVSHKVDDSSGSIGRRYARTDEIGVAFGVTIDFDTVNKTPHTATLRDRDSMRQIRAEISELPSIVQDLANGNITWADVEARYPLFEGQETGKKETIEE
- Assay Summary: flow cytometry, H929 + CADM1 siRNA; None 449; surface target GARS putative
Note: the reply should be a number with no unit written.

Please review the following examples before continuing.
>  <Binder>
HW-28 chimeric rabbit-human IgG1 LA/LA/PG (antibody, V domains shown, Fc-silenced (L234A/L235A/P329G) IgG1, lambda; Alexa Fluor 647-labeled in single-step flow cytometry; Cluster C-45) VH: QKQLVESGGRLVTPGTPLTLTCTASGFSLSSNAMSWVRQAPGEGLQWIGTISSGGSTYYASWAKGRFTISKTSTTVTLKMTSLTTEDTATYFCARGADLHRLWGPGTLVTVSS VL: SFVLTQPASVQVNLGQTVSLTCTGKPLSRSFASWYQQKPGQAPVLVIYRDTSRPSGVPDRFSGSSSGNTATLTISGAQAGDEADYYCATSDGSGSSYQYVFGGGTQLTVTG

>  <mAb binding (MFI)>
66800

$$$$
>  <Binder>
HW-56 chimeric rabbit-human IgG1 LA/LA/PG (antibody, V domains shown, Fc-silenced (L234A/L235A/P329G) IgG1, kappa; Alexa Fluor 647-labeled in single-step flow cytometry; Cluster C-45) VH: QSVKESEGGLFKPTDTLTLTCTASGFTVSTNAVTWVRQAPGNGLEYIGTIGRSGSAYFASWAKRRSTLTRDINLNTVTLKMTSLTAADTATYFCVRGSPGYRTAISIWGPGTLVTISS VL: AVMTQTPSSTSAAVEGTVTINCQASQSISNRLSWFQQKPGQPPKLLIYQASTLASGVPSRFKGSGSGTEFTLTISGVQREDAATYYCLGSYSSSDASFGGGTKLEIKR

>  <mAb binding (MFI)>
547000

$$$$
>  <Binder>
HW-45 chimeric rabbit-human IgG1 LA/LA/PG (antibody, V domains shown, Fc-silenced (L234A/L235A/P329G) IgG1, lambda; Alexa Fluor 647-labeled in single-step flow cytometry; Prototype of cluster C-45) VH: QKQLVESGGRLVTPGTPLTLTCTVSGFSLSSYAMGWFRQAPGKGLEWIGIINSYGSTYYASWAKGRFTISKTSTTVDLKITSPTTEDTATYFCGRRIGSARFDPWGPGTLVTVSS VL: SFVLTQPASVQVNLGQTVSLTCTADTLSRSYASWYQQKPGQAPVLLIYRDTRRPSGVPDRFSGSSSGNTATLTISGAQAGDEADYYCATSDGSGSSYRLVFGGGTQLTVTG

>  <mAb binding (MFI)>
33400

$$$$

Tell me the measured mAb binding (MFI) of HW-81 chimeric rabbit-human IgG1 LA/LA/PG (antibody, V domains shown, Fc-silenced (L234A/L235A/P329G) IgG1, lambda; Alexa Fluor 647-labeled in single-step flow cytometry; Cluster C-45) VH: QKQLVESGGGLVTPGGTLTLTCTVSGFSLSSNGVSWVRQAPGKGLEYIGLIRSIGSTYYATWAKGRFTISKTSTTVDLKITSPTTEDTATYFCARGGYRNGFKLWGPGTLVTVSS VL: QPVLTQSPSVSAALGASAKLTCTLSSAHKTYYIEWYQQQHPGKAPRYLMQLQSDGSYTKGTGVPDRFSGSSSGADRYLIISSVQAEDEADYICGVIDSAVYVFGGGTQLTVTG , please.
696000

Tell me the measured mAb binding (MFI) of HW-8 chimeric rabbit-human IgG1 LA/LA/PG (antibody, V domains shown, Fc-silenced (L234A/L235A/P329G) IgG1, kappa; Alexa Fluor 647-labeled in single-step flow cytometry; Cluster C-45) VH: QSLEESGGRLVTPGTPLTLTCTVSGFSLSSYAMSWVRQAPGKGLEWIGAISTGGSTTYASWAKGRFTISKTSSTTVDLKMTSLTTEDTATYFCVRHFRLWGPGTLVTISS VL: QVLTQTPSSVSAAVGGTVTIKCQASQSIGSALAWFQQKPGQRPKLLIYRASNLASGVPSRFKGSGSGTEFALTISGVQREDAATYYCLGGAAAVWAFGAGTNVEIKR , please.
17000

Tell me the measured mAb binding (MFI) of HW-16 chimeric rabbit-human IgG1 LA/LA/PG (antibody, V domains shown, Fc-silenced (L234A/L235A/P329G) IgG1, kappa; Alexa Fluor 647-labeled in single-step flow cytometry; Cluster C-45) VH: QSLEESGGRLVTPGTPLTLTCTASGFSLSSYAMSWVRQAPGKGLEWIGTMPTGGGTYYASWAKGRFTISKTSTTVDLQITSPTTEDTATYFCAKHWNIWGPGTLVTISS VL: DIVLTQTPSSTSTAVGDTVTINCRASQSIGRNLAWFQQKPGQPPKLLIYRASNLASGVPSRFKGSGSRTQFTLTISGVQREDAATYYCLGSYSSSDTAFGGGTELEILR , please.
45900
